Every entry's value here was drawn from paper PMC9482650.

Target: GRIP2_7, Q9C0E4
Sequence (Q9C0E4 934-1023): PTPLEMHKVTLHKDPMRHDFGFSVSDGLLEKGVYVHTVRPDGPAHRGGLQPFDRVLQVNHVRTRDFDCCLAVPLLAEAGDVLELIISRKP
Experiment: holdup assay
Parameters: key: below the threshold = too weak to quantify, mostly under pKd 3.1 to 4
Details: plain residues with an end cap or a label only (N-terminal biotin on a linker: ttds)
measure: pKd

>>> df
                        binder       recorded_value
0  KLVIKTETTV [RASSF6, Q6ZTQ3]  below the threshold
1    SHSSKGETAV [FZD7, O75084]  below the threshold
2    FVETQHQTQV [FAT3, Q8TDW7]                 3.82
3  GARVSKETPL [MAPK12, P53778]  below the threshold
